- Target entity: Amine oxidase [copper-containing] 2 (Homo sapiens, UniProt O75106)
- Sequence (O75106 whole entry): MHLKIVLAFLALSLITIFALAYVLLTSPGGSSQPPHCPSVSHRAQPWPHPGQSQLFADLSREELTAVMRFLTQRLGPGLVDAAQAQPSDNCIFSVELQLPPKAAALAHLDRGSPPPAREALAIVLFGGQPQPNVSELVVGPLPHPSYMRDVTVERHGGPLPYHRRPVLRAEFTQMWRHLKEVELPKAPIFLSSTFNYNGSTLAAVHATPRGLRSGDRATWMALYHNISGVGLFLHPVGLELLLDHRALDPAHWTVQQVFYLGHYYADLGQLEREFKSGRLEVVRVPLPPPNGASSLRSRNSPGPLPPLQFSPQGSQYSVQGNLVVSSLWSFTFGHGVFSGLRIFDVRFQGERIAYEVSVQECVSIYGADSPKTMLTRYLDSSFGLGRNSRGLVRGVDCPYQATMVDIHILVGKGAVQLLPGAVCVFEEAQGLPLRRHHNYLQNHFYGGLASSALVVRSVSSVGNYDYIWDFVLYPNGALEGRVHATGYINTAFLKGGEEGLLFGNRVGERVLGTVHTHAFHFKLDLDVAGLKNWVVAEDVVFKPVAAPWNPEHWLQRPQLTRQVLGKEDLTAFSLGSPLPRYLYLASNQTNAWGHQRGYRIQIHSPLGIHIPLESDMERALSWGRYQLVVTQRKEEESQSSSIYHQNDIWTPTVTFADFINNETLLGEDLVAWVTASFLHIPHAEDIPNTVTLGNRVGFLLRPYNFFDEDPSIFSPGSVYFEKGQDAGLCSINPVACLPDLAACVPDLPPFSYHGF
Measured endpoint: IC50 (nM)

| Test smiles | Target entity | Unit symbol | Observed result |
| --- | --- | --- | --- |
| CC(C)(O)NC(=O)[C@H]1CCN(S(=O)(=O)c2ccc(OC/C(=C/F)CN)nc2)C1 | Amine oxidase [copper-containing] 2 (Homo sapiens, UniProt O75106) | nM | 629 |

All values here come from BindingDB's records for patent US12178809.
